target: EPHB2 (human) (UniProt P29323); test: radiometric filter-binding kinase assay; details: compound 0.1 µM
Sequence (P29323 whole entry, looked up): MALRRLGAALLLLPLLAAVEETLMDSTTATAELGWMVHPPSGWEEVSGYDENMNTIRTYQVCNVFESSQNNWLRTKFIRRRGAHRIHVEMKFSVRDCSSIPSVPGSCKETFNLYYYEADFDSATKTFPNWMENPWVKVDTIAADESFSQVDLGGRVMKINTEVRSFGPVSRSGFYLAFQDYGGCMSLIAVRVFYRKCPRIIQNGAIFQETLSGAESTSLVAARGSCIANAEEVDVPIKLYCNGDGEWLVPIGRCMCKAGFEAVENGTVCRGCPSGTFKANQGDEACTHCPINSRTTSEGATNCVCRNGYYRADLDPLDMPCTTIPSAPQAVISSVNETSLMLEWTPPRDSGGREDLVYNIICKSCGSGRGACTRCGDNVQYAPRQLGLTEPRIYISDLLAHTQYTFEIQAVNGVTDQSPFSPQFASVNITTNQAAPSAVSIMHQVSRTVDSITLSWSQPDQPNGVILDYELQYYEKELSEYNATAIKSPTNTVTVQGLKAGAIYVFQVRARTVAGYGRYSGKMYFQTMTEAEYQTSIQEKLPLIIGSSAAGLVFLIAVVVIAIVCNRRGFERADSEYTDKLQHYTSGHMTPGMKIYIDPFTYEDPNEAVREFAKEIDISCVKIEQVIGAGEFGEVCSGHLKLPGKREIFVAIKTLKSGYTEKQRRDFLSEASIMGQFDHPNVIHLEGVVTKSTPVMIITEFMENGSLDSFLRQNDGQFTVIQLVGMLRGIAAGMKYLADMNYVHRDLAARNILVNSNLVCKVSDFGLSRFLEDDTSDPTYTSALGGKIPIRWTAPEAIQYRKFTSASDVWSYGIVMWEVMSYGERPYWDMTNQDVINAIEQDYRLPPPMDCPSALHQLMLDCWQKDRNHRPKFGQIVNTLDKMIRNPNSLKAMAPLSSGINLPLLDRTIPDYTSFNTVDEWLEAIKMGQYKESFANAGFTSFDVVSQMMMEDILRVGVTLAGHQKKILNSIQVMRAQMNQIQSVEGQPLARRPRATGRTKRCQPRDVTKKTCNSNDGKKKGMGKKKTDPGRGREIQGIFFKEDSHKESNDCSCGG
Observable: residual activity (%)

O=C(Nc1nc2cc(C(F)(F)F)cc(NC3CC3)n2n1)c1cccnc1; 108
COc1cc(O)c2c(c1)[C@H]1OC1C[C@H](O)[C@H](O)C(=O)/C=C\C[C@H](C)OC2=O (stereo partly drawn); 118
O=C(NCCCNc1nc(Nc2cccc(CN3CCOCC3)c2)ncc1C1CC1)C1CCC1; 88
CCCCCc1ccc(/C=C/[C@H](O)[C@@H](CO)NC)cc1; 115
COc1ccc(-n2ncc3cnc(Nc4cc(OC)c(OC)c(OCCCN5CCN(C)CC5)c4)nc32)cc1; 23
CCn1c(-c2nonc2N)nc2cncc(CNC3CCNCC3)c21; 115
CC1=C(CO)C(=O)O[C@@H]([C@@H](C)[C@H]2CC[C@H]3[C@@H]4C[C@H]5O[C@]56[C@@H](O)C=CC(=O)[C@]6(C)C4CC[C@]23C)C1 (stereo partly drawn); 116
Cc1ccc(Sc2cnc(Nc3cccc(Br)n3)s2)cc1C(=O)N1CCN(C(=O)CN)CC1; 11
NC(=O)c1cc2c(-c3cccc(-c4ccccc4)c3)cnc(N)c2s1; 90
Cc1cc(NC(=O)c2cccc(NC(=O)/C=C/CN(C)C)c2)ccc1Nc1nccc(-c2cccnc2)n1; 101
CN(C)C/C=C/C(=O)Nc1cccc(C(=O)Nc2ccc(Nc3nccc(-c4cccnc4)n3)cc2)c1; 101
c1ccc2c(-c3cnn4cc(-c5ccc(N6CCNCC6)cc5)cnc34)ccnc2c1; 108
Cc1cccc(-c2nn(C(=S)Nc3ccccc3)cc2-c2ccnc3ccccc23)n1; 113
